Species: Rattus norvegicus
assay notes: Open TG-GATES - Regimen: Single
Assay type: toxicity, organism-based, Sprague-Dawley
Parameters: regimen Single, gender Male, age 6 weeks
assay context: in vivo, po, 100 mg/kg, 6 h, tissue Kidney, route gavage, dose level Low
property name: KIDNEY_L (g)
Give bare numbers, in g.

compound string	KIDNEY_L / g
COC(=O)C1=C(C)NC(C)=C(C(=O)OC)C1c1ccccc1[N+](=O)[O-]	0.9
CNC(=C[N+](=O)[O-])NCCSCc1ccc(CN(C)C)o1	1
O=C(OC[C@H]1O[C@@H](OC(=O)c2cc(O)c(O)c(OC(=O)c3cc(O)c(O)c(O)c3)c2)[C@H](OC(=O)c2cc(O)c(O)c(OC(=O)c3cc(O)c(O)c(O)c3)c2)[C@@H](OC(=O)c2cc(O)c(O)c(OC(=O)c3cc(O)c(O)c(O)c3)c2)[C@@H]1OC(=O)c1cc(O)c(O)c(OC(=O)c2cc(O)c(O)c(O)c2)c1)c1cc(O)c(O)c(OC(=O)c2cc(O)c(O)c(O)c2)c1	0.9
Cc1nnc2n1-c1ccc(Cl)cc1C(c1ccccc1Cl)=NC2	0.9

-- ask // lookup KIDNEY_L for CN/C(=N/CCSCc1nc[nH]c1C)NC#N
-- reply 1

---

So I've got a bunch of compounds here, and I need their K values.
Organism: Rattus norvegicus
assay notes: Open TG-GATES - Regimen: Single
Type: toxicity, organism-based, Sprague-Dawley
Set-up: regimen Single, gender Male, age 6 weeks
assay context: in vivo, po, 1000 mg/kg, 3 h, tissue Plasma, route gavage, dose level High
Answers are plain numbers, in meq/L.

// worked examples, K included
compound string	observed result
CN/C(=N/CCSCc1nc[nH]c1C)NC#N	4
O=C(OC[C@H]1O[C@@H](OC(=O)c2cc(O)c(O)c(OC(=O)c3cc(O)c(O)c(O)c3)c2)[C@H](OC(=O)c2cc(O)c(O)c(OC(=O)c3cc(O)c(O)c(O)c3)c2)[C@@H](OC(=O)c2cc(O)c(O)c(OC(=O)c3cc(O)c(O)c(O)c3)c2)[C@@H]1OC(=O)c1cc(O)c(O)c(OC(=O)c2cc(O)c(O)c(O)c2)c1)c1cc(O)c(O)c(OC(=O)c2cc(O)c(O)c(O)c2)c1	4.9
CNC(=C[N+](=O)[O-])NCCSCc1ccc(CN(C)C)o1	3.7
Cc1nnc2n1-c1ccc(Cl)cc1C(c1ccccc1Cl)=NC2	4.3

For the next question, use this compound.
-- ask // lookup K for COC(=O)C1=C(C)NC(C)=C(C(=O)OC)C1c1ccccc1[N+](=O)[O-]
-- reply 5

---

Species on record: Rattus norvegicus
assay notes: Open TG-GATES - Regimen: Daily Repeat
Type: toxicity, organism-based, Sprague-Dawley
Set-up: regimen Daily Repeat, gender Male, age 6 weeks
assay context: in vivo, po, 0 mg/kg, […], route gavage, dose level Control, time 28 day
property name: TERMINAL_BW

// worked examples, TERMINAL_BW included
>>> print(df.to_string())
                                   molecule  observed_result
0  CN1C(=O)CCS(=O)(=O)C1c1ccc(Cl)cc1 (stereo not given)            393 g
1   CNC(=C[N+](=O)[O-])NCCSCc1ccc(CN(C)C)o1          385.4 g
2  NC1=NC(=O)C(c2ccccc2)O1 (stereo not given)          438.2 g
3   Cc1nnc2n1-c1ccc(Cl)cc1C(c1ccccc1Cl)=NC2          389.2 g

For the next question, use this molecule.
-- ask // lookup TERMINAL_BW for Brc1ccccc1
-- reply 384.4 g

---

Species: Rattus norvegicus
assay notes: Open TG-GATES - Regimen: Daily Repeat
Format: toxicity, organism-based, Sprague-Dawley
Parameters: regimen Daily Repeat, gender Male, age 6 weeks
assay context: in vivo, po, 300 mg/kg, […], tissue Liver, route gavage, dose level Middle, time 14 day
property name: LIVER (g)
Give bare numbers, in g.

// worked examples, LIVER included
compound	units label	observed result
Cc1nnc2n1-c1ccc(Cl)cc1C(c1ccccc1Cl)=NC2 [TRIAZOLAM]	g	13.4
CNC(=C[N+](=O)[O-])NCCSCc1ccc(CN(C)C)o1 [RANITIDINE]	g	13.8
O=C(OC[C@H]1O[C@@H](OC(=O)c2cc(O)c(O)c(OC(=O)c3cc(O)c(O)c(O)c3)c2)[C@H](OC(=O)c2cc(O)c(O)c(OC(=O)c3cc(O)c(O)c(O)c3)c2)[C@@H](OC(=O)c2cc(O)c(O)c(OC(=O)c3cc(O)c(O)c(O)c3)c2)[C@@H]1OC(=O)c1cc(O)c(O)c(OC(=O)c2cc(O)c(O)c(O)c2)c1)c1cc(O)c(O)c(OC(=O)c2cc(O)c(O)c(O)c2)c1 [TANNIC ACID]	g	14.7
CN/C(=N/CCSCc1nc[nH]c1C)NC#N [CIMETIDINE]	g	14.6

Give LIVER for each listed item.
1. COC(=O)C1=C(C)NC(C)=C(C(=O)OC)C1c1ccccc1[N+](=O)[O-] [NIFEDIPINE]
2. CCOc1ccc(NC(C)=O)cc1 [PHENACETIN]

-- reply
1: 14.9; 2: 12.6

---

So I've got a bunch of compounds here, and I need their ALP values.
Species on record: Rattus norvegicus
assay notes: Open TG-GATES - Regimen: Single
Type: toxicity, organism-based, Sprague-Dawley
Set-up: regimen Single, gender Male, age 6 weeks
assay context: in vivo, po, 1000 mg/kg, 24 h, tissue Plasma, route gavage, dose level High
One number for each entry, in IU/L.

compound string	ALP [IU/L]
COC(=O)C1=C(C)NC(C)=C(C(=O)OC)C1c1ccccc1[N+](=O)[O-]	1549.8
CN/C(=N/CCSCc1nc[nH]c1C)NC#N	1054.4
CNC(=C[N+](=O)[O-])NCCSCc1ccc(CN(C)C)o1	881.6
Cc1nnc2n1-c1ccc(Cl)cc1C(c1ccccc1Cl)=NC2	1921.8

For the next question, use this compound.
-- ask // lookup ALP for O=C(OC[C@H]1O[C@@H](OC(=O)c2cc(O)c(O)c(OC(=O)c3cc(O)c(O)c(O)c3)c2)[C@H](OC(=O)c2cc(O)c(O)c(OC(=O)c3cc(O)c(O)c(O)c3)c2)[C@@H](OC(=O)c2cc(O)c(O)c(OC(=O)c3cc(O)c(O)c(O)c3)c2)[C@@H]1OC(=O)c1cc(O)c(O)c(OC(=O)c2cc(O)c(O)c(O)c2)c1)c1cc(O)c(O)c(OC(=O)c2cc(O)c(O)c(O)c2)c1
-- reply 893.8

---

So I've got a bunch of molecules here, and I need their MCH values.
Species on record: Rattus norvegicus
assay notes: Open TG-GATES - Regimen: Single
Assay type: toxicity, organism-based, Sprague-Dawley
Design: regimen Single, gender Male, age 6 weeks
assay context: in vivo, po, 1000 mg/kg, 6 h, tissue Blood, route gavage, dose level High
Give bare numbers, in pg.

// worked examples, MCH included
compound string	property name	observed result
Cc1nnc2n1-c1ccc(Cl)cc1C(c1ccccc1Cl)=NC2	MCH	20.6
CNC(=C[N+](=O)[O-])NCCSCc1ccc(CN(C)C)o1	MCH	21.7
CN/C(=N/CCSCc1nc[nH]c1C)NC#N	MCH	21.7
O=C(OC[C@H]1O[C@@H](OC(=O)c2cc(O)c(O)c(OC(=O)c3cc(O)c(O)c(O)c3)c2)[C@H](OC(=O)c2cc(O)c(O)c(OC(=O)c3cc(O)c(O)c(O)c3)c2)[C@@H](OC(=O)c2cc(O)c(O)c(OC(=O)c3cc(O)c(O)c(O)c3)c2)[C@@H]1OC(=O)c1cc(O)c(O)c(OC(=O)c2cc(O)c(O)c(O)c2)c1)c1cc(O)c(O)c(OC(=O)c2cc(O)c(O)c(O)c2)c1	MCH	22

For the next question, use this molecule.
-- ask // lookup MCH for COC(=O)C1=C(C)NC(C)=C(C(=O)OC)C1c1ccccc1[N+](=O)[O-]
-- reply 20.6

---

Organism: Rattus norvegicus
assay notes: Open TG-GATES - Regimen: Daily Repeat
Format: toxicity, organism-based, Sprague-Dawley
Design: regimen Daily Repeat, gender Male, age 6 weeks
assay context: in vivo, po, 100 mg/kg, 72 h, tissue Plasma, route gavage, dose level Low, time 3 day
property name: PL (mg/dL)
Numbers only, in mg/dL.

molecule	units label	PL
CN/C(=N/CCSCc1nc[nH]c1C)NC#N [CIMETIDINE]	mg/dL	155.8
CNC(=C[N+](=O)[O-])NCCSCc1ccc(CN(C)C)o1 [RANITIDINE]	mg/dL	152.6
COC(=O)C1=C(C)NC(C)=C(C(=O)OC)C1c1ccccc1[N+](=O)[O-] [NIFEDIPINE]	mg/dL	152

Give PL for each listed item.
1. O=C(OC[C@H]1O[C@@H](OC(=O)c2cc(O)c(O)c(OC(=O)c3cc(O)c(O)c(O)c3)c2)[C@H](OC(=O)c2cc(O)c(O)c(OC(=O)c3cc(O)c(O)c(O)c3)c2)[C@@H](OC(=O)c2cc(O)c(O)c(OC(=O)c3cc(O)c(O)c(O)c3)c2)[C@@H]1OC(=O)c1cc(O)c(O)c(OC(=O)c2cc(O)c(O)c(O)c2)c1)c1cc(O)c(O)c(OC(=O)c2cc(O)c(O)c(O)c2)c1 [TANNIC ACID]
2. CCOc1ccc(NC(C)=O)cc1 [PHENACETIN]
3. Cc1nnc2n1-c1ccc(Cl)cc1C(c1ccccc1Cl)=NC2 [TRIAZOLAM]

-- reply
[154.6, 158.8, 142.4]
